Assay: soluble on expression in E. coli; label from the status in PepcDB or PDB records

BIOPOLYMER_SEQUENCE	soluble on expression in E. coli
MGSDKIHHHHHHMLFANSLENQLQQWNEVISKQPNNPNAYIRRGMVQFQLAKIEESIDDFDTAEKLDNRIKPYLWQRGLSYYYADRFAEGAQQFEIDLTVNSQDVEETVWRYLCMARLVGVTEARNNLLTVKNDPRLIMRSVYDLFAGHCTPDNVFNIGQTEGNKGKFYSHLYLGLYYEAENNLPLAQEYIVKAADKYKLDDYMWYLAQVHKKLRGWM	not soluble
IGDMAPKANMGWYNSFSYKGFNLGMMLTARLGGLVVSNTQGVLDYYGVSKASADARDAGGVWINNGYVDAKEYYQTIGGSNGGLGQYYTYSATNVRLSELSFSYAFPKKWFNNKVGITAGFVAKNLWMIYCKAPFDPELTASTSSNFYQGVDYFMTPSTRNLGFNVKFQF	not soluble
